Cited source: ChEMBL document CHEMBL1201862

# Tested on: SN12C
# test_description: NCI tumour cell line growth inhibition, 48 h
Active and inactive are the calls of the source. No stated cut-off is given here; in the data, active = GI50 up to about 1.1 µM and inactive = higher.
Allowed answers: 1 for active, 0 for inactive

compound	qualitative_label
CN(C)CC1CCCC/C1=N/OC(=O)c1ccc(Cl)c(Cl)c1 (configuration not stated)	0
C=C1C(=O)O[C@@H]2[C@H]1C[C@@H](O)[C@H](C)[C@@](O)(C(=O)/C=C/C)[C@H]2OC(=O)C(C)CC (some centres not stated)	0
COc1ccc(/N=N/C(=O)NC(CC(C)C)C(=O)NC(CC(C)C)C(=O)O)cc1 (configuration not stated)	0

Recorded test outcome, item CCOC(=O)C1=CN/C(=C(/C)C(=O)OC)SC1C(=O)OCC (configuration not stated)
0

Similarly, CC(C)(C)OC/C=C1\C(=O)O[C@H]2C[C@@H](O[Si](C)(C)C(C)(C)C)C[C@@H]12 ?
0

Now consider C#CCNC(Cc1c[nH]cn1)C(=O)O (configuration not stated) .
0

Try this compound too: CN1CCCOC(c2ccc(Cl)cc2)O1 (configuration not stated)
0

Okay, and C#CCN(N=O)C(=O)NC(CCCNC(=O)OCc1ccccc1)C(=O)OCc1ccccc1 (configuration not stated) ?
0

And for COc1ccccc1/C=N/C12CC3CC(CC(C3)C1)C2 ?
0

Continue with CC(=O)OCCOCNC(=S)N/N=C/c1ccc(Br)s1
0

Request: Cc1cnc(SCCN2CCN(C)CC2)nc1-c1cc2ccccc2s1
0

What do you have for CCOP(=O)(OCC)[C@]12C[C@@H](C)C=C[C@H]1COC2=O ?
0

Similarly, Cc1cc(N=C2C=C(Br)C(=O)C(Br)=C2)cc(CN(CC(=O)O)CC(=O)O)c1O ?
0

And NC(=O)/C(=N\NC(=O)C[n+]1ccccc1)C1NC(=O)NC1=O (configuration not stated) ?
0

Again, but for COc1ccc(OC)c(C(=O)/C=C/c2cc(O)c(O)cc2F)c1
1

What do you have for CC(=O)OC1c2ccccc2CCCCCCC12OCCO2 (configuration not stated) ?
0

Same lookup for CCOC(OC(C)=O)[C@@H]1C=C[C@H](C)N(c2ccc([N+](=O)[O-])cc2)O1 (some centres not stated) , please.
0

###

# System: COLO 205
# test_description: NCI tumour cell line growth inhibition, 48 h
Calls of active or inactive are those of the source. Cut-off read from the data, not from the text of the source: active = GI50 up to about 1.1 µM and inactive = higher.
Just give me one of these, please: active, inactive

>>> df
                                   compound  qualitative_label
0  c1ccc(-c2nc(-c3ccccc3)c(-c3ccccc3)[nH]2)cc1           inactive
1           N#CC(C#N)=Cc1c[nH]c(=O)[nH]c1=O           inactive
2  COc1ccccc1NC(=O)/C(Cc1nc2ccc([N+](=O)[O-])cc2nc1O)=N\NC(=O)C[N+](C)(C)C           inactive
3       CC(=O)C(CN1C(=O)c2ccccc2C1=O)C(C)=O           inactive
4  COc1cc2c(cc1OC)C1(c3ccccc3)CN(C2)Cc2cc(OC)c(OC)cc21           inactive

Give the logged outcome of this assay for the following compound: CCOC(=O)c1c(-c2ccccc2)c(OC)cn1C
inactive

Thanks! And COc1cc(C2c3cc4c(cc3[C@@H](NCCN3CCCCC3)C3COC(=O)[C@H]23)OCO4)cc(OC)c1O (some centres undefined) ?
active

Same again, this time with CCCCCCCCCCCCCCCCOP(=O)(O)OP(=O)(O)OCC1OC(n2cnc3c(N)ncnc32)C(O)C1O (centres undefined)
inactive

Note, next up: CCOC(=O)c1c(SCCCN2CCCCC2)n(-c2ccccc2)c(=S)n(-c2ccccc2)c1=O
inactive
